Collected IC50 values appear next to each entry.
- target system: UniProt:Q5VWK5
- protocol notes: cell-based
- setup conditions: PBMC pSTAT3 IC50 (nM), PBMCs from healthy donors, IL-23 5 ng/mL, 30 minutes, phosphorylated STAT3
Positions of bridges follow the written chain, without caps; N, C: chain ends. Non-standard residues stand in square brackets, D forms with d. Residues, ends and D or L forms follow the SMILES beside them. Trp(7-Me) = Cc1cccc2c(C[C@H](N)C(=O)O)c[nH]c12; 2Nal = N[C@@H](Cc1ccc2ccccc2c1)C(=O)O; AEF = NCCOc1ccc(C[C@H](N)C(=O)O)cc1; αMeF = C[C@](N)(Cc1ccccc1)C(=O)O; Cit = NC(=O)NCCC[C@H](N)C(=O)O; αMeL = CC(C)C[C@](C)(N)C(=O)O; Pen = CC(C)(S)[C@H](N)C(=O)O; Ac5c = NC1(C(=O)O)CCCC1
Give the number; nM is assumed, so skip it.

In the examples that follow, each entry is paired with its recorded IC50.
CC(=O)NCCCC[C@@H]1NC(=O)[C@H](Cc2c[nH]c3c(C)cccc23)NC(=O)[C@H]([C@@H](C)O)NC(=O)[C@H](CC(N)=O)NC(=O)[C@@H](NC(C)=O)C(C)(C)SSC(C)(C)[C@@H](C(=O)N[C@@H](Cc2ccc(OCCN)cc2)C(=O)N[C@@H](Cc2ccc3ccccc3c2)C(=O)NC2(C(=O)N[C@@H](CCC(=O)O)C(=O)N[C@@H](CC(N)=O)C(=O)NC3(C(N)=O)CCOCC3)CC2)NC1=O [Compound 317]    13
CC(=O)N[C@H](CCCNC(=N)N)C(=O)N[C@H]1CCSC[C@@H](C(=O)N[C@@H](Cc2ccc(OCCN)cc2)C(=O)N[C@@H](Cc2ccc3ccccc3c2)C(=O)NC2(C(=O)N[C@@](C)(CCC(=O)O)C(=O)N[C@@H](CC(N)=O)C(=O)N[C@@H](Cc3ccc(C(N)=O)cc3)C(N)=O)CCOCC2)NC(=O)[C@H](CCC(N)=O)NC(=O)[C@H](Cc2c[nH]c3ccccc23)NC(=O)[C@H]([C@@H](C)O)NC(=O)[C@H](CCC(N)=O)NC1=O [Compound 34]    5.8
CC(=O)NCCCC[C@H](NC(=O)[C@](C)(CC(C)C)NC(=O)[C@H](Cc1ccc2ccccc2c1)NC(=O)[C@H](Cc1ccc(OCCN)cc1)NC(=O)[C@H]1NC(=O)[C@H](CCCNC(N)=O)NC(=O)[C@H](Cc2c[nH]c3c(C)cccc23)NC(=O)[C@H]([C@@H](C)O)NC(=O)[C@H](CC(N)=O)NC(=O)[C@@H](NC(C)=O)C(C)(C)SSC1(C)C)C(=O)N[C@@H](CC(N)=O)C(=O)N[C@@](C)(Cc1ccccc1)C(N)=O [Compound 104] (Ac-[Pen]NT[Trp(7-Me)][Cit][Pen][AEF][2Nal][αMeL]K(Ac)N[αMeF]-NH2; disulfide 1-6)    8.2

Could you now look at the following compound, please?
Enquiry: Quote IC50 reported for CC(=O)NCCCC[C@@H]1NC(=O)[C@H](Cc2c[nH]c3ccccc23)NC(=O)[C@H]([C@@H](C)O)NC(=O)[C@H](CC(N)=O)NC(=O)[C@@H](NC(=O)[C@@H](CCCNC(=N)N)NC(C)=O)C(C)(C)SSC(C)(C)[C@@H](C(=O)N[C@@H](Cc2ccc(OCCN)cc2)C(=O)N[C@@H](Cc2ccc3ccccc3c2)C(=O)NC2(C(=O)N[C@@H](CCC(=O)O)C(=O)N[C@@H](CC(N)=O)C(=O)N[C@@](C)(Cc3ccccc3)C(N)=O)CCCC2)NC1=O [Compound 102] (Ac-[dR][Pen]NTWK(Ac)[Pen][AEF][2Nal][Ac5c]EN[αMeF]-NH2; disulfide 2-7) please.
Return: 8.4

---

- target system: IL-23R (Homo sapiens, UniProt Q5VWK5)
- Sequence (Q5VWK5 24-629): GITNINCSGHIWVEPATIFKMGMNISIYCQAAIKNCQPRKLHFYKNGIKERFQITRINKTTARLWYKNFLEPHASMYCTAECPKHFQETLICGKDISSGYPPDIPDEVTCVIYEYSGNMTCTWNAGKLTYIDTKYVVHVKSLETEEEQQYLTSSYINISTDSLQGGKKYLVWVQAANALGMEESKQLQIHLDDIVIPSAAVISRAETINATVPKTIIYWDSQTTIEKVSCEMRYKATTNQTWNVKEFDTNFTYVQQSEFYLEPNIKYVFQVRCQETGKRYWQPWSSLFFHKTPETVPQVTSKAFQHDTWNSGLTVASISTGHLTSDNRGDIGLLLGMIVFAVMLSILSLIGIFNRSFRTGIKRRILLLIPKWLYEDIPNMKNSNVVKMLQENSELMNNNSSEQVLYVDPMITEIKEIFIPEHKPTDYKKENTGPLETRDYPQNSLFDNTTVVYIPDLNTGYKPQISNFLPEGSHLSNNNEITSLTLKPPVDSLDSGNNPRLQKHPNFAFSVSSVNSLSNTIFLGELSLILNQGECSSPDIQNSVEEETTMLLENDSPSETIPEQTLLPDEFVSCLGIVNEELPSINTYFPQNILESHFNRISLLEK
- protocol notes: cell-based
- setup conditions: PBMC pSTAT3 IC50 (nM), PBMCs from healthy donors, IL-23 5 ng/mL, 30 minutes, phosphorylated STAT3
Positions of bridges follow the written chain, without caps; N, C: chain ends. Non-standard residues stand in square brackets, D forms with d. Residues, ends and D or L forms follow the SMILES beside them. *: point of attachment. 2Nal = N[C@@H](Cc1ccc2ccccc2c1)C(=O)O; AEF = NCCOc1ccc(C[C@H](N)C(=O)O)cc1; Pen = CC(C)(S)[C@H](N)C(=O)O; Thp = NC1(C(=O)O)CCOCC1; X7 = Nc1cccc(N*)c1
Collected IC50 values appear next to each entry.

Enquiry: Quote IC50 reported for CC(=O)N[C@H](CCCNC(=N)N)C(=O)N[C@H]1CCSC[C@@H](C(=O)N[C@@H](Cc2ccc(OCCN)cc2)C(=O)N[C@@H](Cc2ccc3ccccc3c2)C(=O)NC2(C(=O)N[C@@](C)(CCC(=O)O)C(=O)N[C@@H](CC(N)=O)C(=O)N[C@@](C)(Cc3ccc(O)cc3)C(N)=O)CCOCC2)NC(=O)[C@H](CCC(N)=O)NC(=O)[C@H](Cc2c[nH]c3ccccc23)NC(=O)[C@H]([C@@H](C)O)NC(=O)[C@H](CCC(N)=O)NC1=O [Compound 44] please.
Return: 9.3 nM

Enquiry: Quote IC50 reported for CC(=O)NCCCC[C@H](NC(=O)C1(NC(=O)[C@H](Cc2ccc3ccccc3c2)NC(=O)[C@H](Cc2ccc(OCCN)cc2)NC(=O)[C@H]2NC(=O)[C@H](CCC(N)=O)NC(=O)[C@H](Cc3c[nH]c4ccccc34)NC(=O)[C@H]([C@@H](C)O)NC(=O)[C@H](CCC(N)=O)NC(=O)[C@@H](NC(=O)[C@@H](CCCNC(=N)N)NC(C)=O)C(C)(C)SSC2(C)C)CCOCC1)C(=O)N[C@@H](CC(N)=O)C(=O)NC1(C(N)=O)CCOCC1 [Compound 56] please.
Return: 4.9 nM

Enquiry: Quote IC50 reported for CC(=O)N[C@H](CCCNC(=N)N)C(=O)N[C@@H]1C(=O)N[C@@H](CCC(N)=O)C(=O)N[C@@H]([C@@H](C)O)C(=O)N[C@@H](Cc2c[nH]c3ccccc23)C(=O)N[C@@H](CCC(N)=O)C(=O)N[C@H](C(=O)N[C@@H](Cc2ccc(OCCN)cc2)C(=O)N[C@@H](Cc2ccc3ccccc3c2)C(=O)NC2(C(=O)N[C@@H](CCC(=O)O)C(=O)N[C@@H](CC(N)=O)C(=O)N[C@@H](CC(=O)Nc3cccc(N)c3)C(N)=O)CCOCC2)C(C)(C)SSC1(C)C [Compound 130] (Ac-[dR][Pen]QTWQ[Pen][AEF][2Nal][Thp]END(X7)-NH2; disulfide 2-7) please.
Return: 9.2 nM

---

- target system: IL-23R (Homo sapiens)
- protocol notes: cell-based
measurement type: IC50 (nM)
Give the number; nM is assumed, so skip it.

Enquiry: Quote IC50 reported for CC(=O)NCCCC[C@@H]1NC(=O)[C@H](Cc2c[nH]c3c(C)cccc23)NC(=O)[C@H]([C@@H](C)O)NC(=O)[C@H](CC(N)=O)NC(=O)[C@@H](NC(C)=O)C(C)(C)SSC(C)(C)[C@@H](C(=O)N[C@@H](Cc2ccc(OCCN)cc2)C(=O)N[C@@H](Cc2ccc3ccccc3c2)C(=O)N[C@@](C)(CCCCN)C(=O)N[C@@H](CCCCNC(C)=O)C(=O)N[C@@H](CC(N)=O)C(=O)N[C@H](CC(C)C)C(=O)N[C@@](C)(Cc2ccccc2)C(N)=O)NC1=O [Compound 68] please.
Return: 7

---

- target system: IL-23R (Homo sapiens, UniProt Q5VWK5)
- protocol notes: cell-based
- setup conditions: PBMC pSTAT3 IC50 (nM), PBMCs from healthy donors, IL-23 5 ng/mL, 30 minutes, phosphorylated STAT3
Positions of bridges follow the written chain, without caps; N, C: chain ends. Non-standard residues stand in square brackets, D forms with d. Residues, ends and D or L forms follow the SMILES beside them. 2Nal = N[C@@H](Cc1ccc2ccccc2c1)C(=O)O; AEF = NCCOc1ccc(C[C@H](N)C(=O)O)cc1; Pen = CC(C)(S)[C@H](N)C(=O)O; Ac5c = NC1(C(=O)O)CCCC1; Thp = NC1(C(=O)O)CCOCC1
measurement type: IC50 (nM)
Give the number; nM is assumed, so skip it.

In the examples that follow, each entry is paired with its recorded IC50.
CC(=O)N[C@H](CCCNC(=N)N)C(=O)N[C@H]1CCSC[C@@H](C(=O)N[C@@H](Cc2ccc(OCCN)cc2)C(=O)N[C@@H](Cc2ccc3ccccc3c2)C(=O)NC2(C(=O)N[C@@](C)(CCC(=O)O)C(=O)N[C@@H](CC(N)=O)C(=O)N[C@@H](Cc3ccc4ccccc4c3)C(N)=O)CCOCC2)NC(=O)[C@H](CCC(N)=O)NC(=O)[C@H](Cc2c[nH]c3ccccc23)NC(=O)[C@H]([C@@H](C)O)NC(=O)[C@H](CCC(N)=O)NC1=O    25
CC(=O)N[C@H](CCCNC(=N)N)C(=O)N[C@H]1CCSC[C@@H](C(=O)N[C@@H](Cc2ccc(OCCN)cc2)C(=O)N[C@@H](Cc2ccc3ccccc3c2)C(=O)NC2(C(=O)N[C@@H](CCC(=O)O)C(=O)N[C@@H](CC(N)=O)C(=O)N[C@@H](Cc3ccccc3)C(N)=O)CCOCC2)NC(=O)[C@H](CCC(N)=O)NC(=O)[C@H](Cc2c[nH]c3ccccc23)NC(=O)[C@H]([C@@H](C)O)NC(=O)[C@H](CCC(N)=O)NC1=O    3.4
CCC(=O)N[C@H](CCCNC(=N)N)C(=O)N[C@H]1CCSC[C@@H](C(=O)N[C@@H](Cc2ccc(OCCN)cc2)C(=O)N[C@@H](Cc2ccc3ccccc3c2)C(=O)NC2(C(=O)N[C@@H](CCC(=O)O)C(=O)N[C@@H](CC(N)=O)C(=O)NC3(C(N)=O)CCOCC3)CCOCC2)NC(=O)[C@H](CCC(N)=O)NC(=O)[C@H](Cc2c[nH]c3ccccc23)NC(=O)[C@H]([C@@H](C)O)NC(=O)[C@H](CCC(N)=O)NC1=O    3.3
CC(=O)NCCCC[C@@H]1NC(=O)[C@H](Cc2c[nH]c3c(C)cccc23)NC(=O)[C@H]([C@@H](C)O)NC(=O)[C@H](CC(N)=O)NC(=O)[C@@H](NC(C)=O)C(C)(C)SSC(C)(C)[C@@H](C(=O)N[C@@H](Cc2ccc(OCCN)cc2)C(=O)N[C@@H](Cc2ccc3ccccc3c2)C(=O)NC2(C(=O)N[C@@H](CCCCNC(=O)C(F)(F)F)C(=O)N[C@@H](CC(N)=O)C(=O)NC3(C(N)=O)CCOCC3)CCOCC2)NC1=O    2.6
CC(=O)N[C@H](CCCNC(=N)N)C(=O)N[C@H]1CCSC[C@@H](C(=O)N[C@@H](Cc2ccc(OCCN)cc2)C(=O)N[C@@H](Cc2ccc3ccccc3c2)C(=O)NC2(C(=O)N[C@@](C)(CCC(=O)O)C(=O)N[C@@H](CC(N)=O)C(=O)N[C@@H](Cc3cc(F)cc(F)c3)C(N)=O)CCOCC2)NC(=O)[C@H](CCC(N)=O)NC(=O)[C@H](Cc2c[nH]c3ccccc23)NC(=O)[C@H]([C@@H](C)O)NC(=O)[C@H](CCC(N)=O)NC1=O    48
COc1ccc(C[C@@H](NC(=O)[C@H](CC(N)=O)NC(=O)[C@](C)(CCC(=O)O)NC(=O)C2(NC(=O)[C@H](Cc3ccc4ccccc4c3)NC(=O)[C@H](Cc3ccc(OCCN)cc3)NC(=O)[C@@H]3CSCC[C@H](NC(=O)[C@@H](CCCNC(=N)N)NC(C)=O)C(=O)N[C@@H](CCC(N)=O)C(=O)N[C@@H]([C@@H](C)O)C(=O)N[C@@H](Cc4c[nH]c5ccccc45)C(=O)N[C@@H](CCC(N)=O)C(=O)N3)CCOCC2)C(N)=O)cc1OC    25
CC(=O)NCCCC[C@@H]1NC(=O)[C@H](Cc2c[nH]c3ccccc23)NC(=O)[C@H]([C@@H](C)O)NC(=O)[C@H](CC(N)=O)NC(=O)[C@@H](NC(=O)[C@@H](CCCNC(=N)N)NC(C)=O)C(C)(C)SSC(C)(C)[C@@H](C(=O)N[C@@H](Cc2ccc(OCCN)cc2)C(=O)N[C@@H](Cc2ccc3ccccc3c2)C(=O)NC2(C(=O)N[C@@H](CCC(=O)O)C(=O)N[C@@H](CC(N)=O)C(=O)NC3(C(N)=O)CCOCC3)CCCC2)NC1=O [Compound 88] (Ac-[dR][Pen]NTWK(Ac)[Pen][AEF][2Nal][Ac5c]EN[Thp]-NH2; disulfide 2-7)    3.7
CC(=O)NCCCC[C@@H]1NC(=O)[C@H](Cc2c[nH]c3c(C)cccc23)NC(=O)[C@H]([C@@H](C)O)NC(=O)[C@H](CC(N)=O)NC(=O)[C@@H](N)C(C)(C)SSC(C)(C)[C@@H](C(=O)N[C@@H](Cc2ccc(OCCNC(=O)OC(C)(C)C)cc2)C(=O)N[C@@H](Cc2ccc3ccccc3c2)C(=O)N[C@@](C)(CCCCNC(=O)OC(C)(C)C)C(=O)N[C@@H](CCCCNC(C)=O)C(=O)N[C@@H](CC(N)=O)C(=O)N[C@@](C)(Cc2ccccc2)C(N)=O)NC1=O    28

Could you now look at the following compound, please?
Enquiry: Quote IC50 reported for `CCC(=O)N[C@H](CCCNC(=N)N)C(=O)N[C@@H]1C(=O)N[C@@H](CCC(N)=O)C(=O)N[C@@H]([C@@H](C)O)C(=O)N[C@@H](Cc2c[nH]c3ccccc23)C(=O)N[C@@H](CCC(N)=O)C(=O)N[C@H](C(=O)N[C@@H](Cc2ccc(OCCN)cc2)C(=O)N[C@@H](Cc2ccc3ccccc3c2)C(=O)NC2(C(=O)N[C@@H](CCCCNC(=O)C(C)(C)C)C(=O)N[C@@H](CC(N)=O)C(=O)NC3(C(N)=O)CCOCC3)CCOCC2)C(C)(C)SSC1(C)C` please.
Return: 8.6
